Value source: ChEMBL document CHEMBL1152177

assay: Bioavailability in Han-Wistar rat at 5 umol/kg, po; assay type: ADME, organism-based; settings: in vivo
quantity-kind: bioavailability (%)

[[record]]
chem_smiles = "CNC(=O)c1ccc(Nc2nccc(-c3cnc(C)n3C(C)C)n2)cc1F"
quantity_kind = "bioavailability"
measured_result = 21


----------
experiment: Bioavailability in Han-Wistar rat at 20 umol/kg, po; format: ADME, organism-based; conditions: in vivo
quantity-kind: bioavailability (%)

[[record]]
chem_smiles = "CNC(=O)c1ccc(Nc2nccc(-c3cnc(C)n3C(C)C)n2)cc1F"
measured_result = 47


----------
assay: AUC in nude mouse at 2.0 umol/kg, iv; format: ADME, organism-based; settings: plasma
quantity-kind: AUC (µM·h)

[[record]]
chem_smiles = "CNC(=O)c1ccc(Nc2nccc(-c3cnc(C)n3C(C)C)n2)cc1F"
unit_of_measure = "µM·h"
measured_result = 1.8

